system: HCI13 (cells of an ER-positive luminal breast cancer xenograft); test: cell viability (% of vehicle); higher = less cytotoxic; details: 10 µM; 72 h
cell viability under 80 gets t, anything at or over 80 gets f.

compound	classification
O=S(=O)(O)NC1CCCCC1	t
CC(N)(Cc1ccc(O)c(O)c1)C(=O)O (configuration not stated)	f
COC(=O)N(C)c1c(N)nc(-c2nn(Cc3ccccc3F)c3ncccc23)nc1N	f

Problem: Does CNCCCC12CCC(c3ccccc31)c1ccccc12.Cl [Maprotiline HCl] have cell viability strictly under 80?
Result: f

Problem: Does C[N+](C)(C)CCOC(=O)CCC(=O)OCC[N+](C)(C)C.O.O.[Cl-].[Cl-] [Succinylcholine Chloride Dihydrate] have cell viability strictly under 80?
Result: f

Problem: Does Cc1cnc(Nc2ccc(OCCN3CCCC3)cc2)nc1Nc1cccc(S(=O)(=O)NC(C)(C)C)c1 have cell viability strictly under 80?
Result: t

Problem: Does CC/C(=C(\c1ccccc1)c1ccc(OCCN(C)C)cc1)c1ccccc1 have cell viability strictly under 80?
Result: f

====

test system: HCI03 (cells of an ER-positive luminal breast cancer xenograft); assay: cell viability (% of vehicle); higher = less cytotoxic; details: 10 µM; 72 h
The compounds listed here are annotated with their cell viability.
Respond using a number only.

See these solved cases before continuing.
compound	cell viability
COC(=O)C(Cc1ccccc1)NC(=O)C(N)CC(=O)O (stereo not drawn) [Aspartame]	152
CC(C)C(N)C(=O)OCC(CO)OCn1cnc2c(=O)nc(N)[nH]c21.Cl (stereo not drawn) [Valganciclovir HCl]	104
NCCCC(O)(P(=O)([O-])O)P(=O)(O)O.O.O.O.[Na+] [Alendronate]	123

// moving on: another record for cell viability
Problem: Hi! What's the reported cell viability for O=C(O)C=Cc1ccc(Cn2ccnc2)cc1 [Ozagrel] on HCI03?
Result: 145

====

system: UCD52 (cells of a triple-negative basal-like breast cancer xenograft); test: cell viability of combination (% of vehicle); higher = less cytotoxic; settings: 1 µM; 72 h; partner dose: 10 nM
The compounds listed here are annotated with their cell viability of combination.
Respond using a number only.

Problem: Find the recorded cell viability of combination belonging to COc1cc2c(Oc3ccc4[nH]c(C)cc4c3F)ncnc2cc1OCCCN1CCCC1 [Cediranib (AZD217)] + CC(C)C[C@H](NC(=O)[C@H](CCc1ccccc1)NC(=O)CN1CCOCC1)C(=O)N[C@@H](Cc1ccccc1)C(=O)N[C@@H](CC(C)C)C(=O)[C@@]1(C)CO1 and report it.
Result: 31.6

Problem: Find the recorded cell viability of combination belonging to COc1cc2nccc(Oc3ccc(NC(=O)C4(C(=O)Nc5ccc(F)cc5)CC4)cc3)c2cc1OC.O=C(O)CC(O)C(=O)O [Cabozantinib malate (XL184)] + CC(C)C[C@H](NC(=O)[C@H](CCc1ccccc1)NC(=O)CN1CCOCC1)C(=O)N[C@@H](Cc1ccccc1)C(=O)N[C@@H](CC(C)C)C(=O)[C@@]1(C)CO1 and report it.
Result: 57.2

Problem: Find the recorded cell viability of combination belonging to CCCCc1oc2ccc(NS(C)(=O)=O)cc2c1C(=O)c1ccc(OCCCN(CCCC)CCCC)cc1 [Dronedarone] + CC(C)C[C@H](NC(=O)[C@H](CCc1ccccc1)NC(=O)CN1CCOCC1)C(=O)N[C@@H](Cc1ccccc1)C(=O)N[C@@H](CC(C)C)C(=O)[C@@]1(C)CO1 and report it.
Result: 59.3

Problem: Find the recorded cell viability of combination belonging to CCOC(=O)C1=C(COCCN)NC(C)=C(C(=O)OC)C1c1ccccc1Cl (stereo not drawn) [Amlodipine] + CC(C)C[C@H](NC(=O)[C@H](CCc1ccccc1)NC(=O)CN1CCOCC1)C(=O)N[C@@H](Cc1ccccc1)C(=O)N[C@@H](CC(C)C)C(=O)[C@@]1(C)CO1 and report it.
Result: 62.5

Problem: Find the recorded cell viability of combination belonging to Cc1cccc(CN2CCN(C(c3ccccc3)c3ccc(Cl)cc3)CC2)c1.Cl.Cl (stereo not drawn) [Meclizine 2HCl] + CC(C)C[C@H](NC(=O)[C@H](CCc1ccccc1)NC(=O)CN1CCOCC1)C(=O)N[C@@H](Cc1ccccc1)C(=O)N[C@@H](CC(C)C)C(=O)[C@@]1(C)CO1 and report it.
Result: 57.2

Problem: Find the recorded cell viability of combination belonging to CCCCc1oc2ccccc2c1C(=O)c1cc(I)c(OCCN(CC)CC)c(I)c1.Cl [Amiodarone HCl] + CC(C)C[C@H](NC(=O)[C@H](CCc1ccccc1)NC(=O)CN1CCOCC1)C(=O)N[C@@H](Cc1ccccc1)C(=O)N[C@@H](CC(C)C)C(=O)[C@@]1(C)CO1 and report it.
Result: 63.7

Problem: Find the recorded cell viability of combination belonging to CCOC(=O)c1c(CSc2ccccc2)n(C)c2cc(Br)c(O)c(CN(C)C)c12.Cl [Arbidol HCl] + CC(C)C[C@H](NC(=O)[C@H](CCc1ccccc1)NC(=O)CN1CCOCC1)C(=O)N[C@@H](Cc1ccccc1)C(=O)N[C@@H](CC(C)C)C(=O)[C@@]1(C)CO1 and report it.
Result: 58.5

Problem: Find the recorded cell viability of combination belonging to COCCn1c2c([n+](Cc3cnccn3)c1C)C(=O)c1ccccc1C2=O.[Br-] + CC(C)C[C@H](NC(=O)[C@H](CCc1ccccc1)NC(=O)CN1CCOCC1)C(=O)N[C@@H](Cc1ccccc1)C(=O)N[C@@H](CC(C)C)C(=O)[C@@]1(C)CO1 and report it.
Result: 17.4

Problem: Find the recorded cell viability of combination belonging to O=C(O)CO.[NH2-].[NH2-].[Pt+2] [Nedaplatin] + CC(C)C[C@H](NC(=O)[C@H](CCc1ccccc1)NC(=O)CN1CCOCC1)C(=O)N[C@@H](Cc1ccccc1)C(=O)N[C@@H](CC(C)C)C(=O)[C@@]1(C)CO1 and report it.
Result: 68.8

Problem: Find the recorded cell viability of combination belonging to COC(=O)C1=C(C)NC(C)=C(C(=O)OC2CCCN(Cc3ccccc3)C2)C1c1cccc([N+](=O)[O-])c1.Cl (stereo not drawn) [Benidipine HCl] + CC(C)C[C@H](NC(=O)[C@H](CCc1ccccc1)NC(=O)CN1CCOCC1)C(=O)N[C@@H](Cc1ccccc1)C(=O)N[C@@H](CC(C)C)C(=O)[C@@]1(C)CO1 and report it.
Result: 57.7

Problem: Find the recorded cell viability of combination belonging to CN(C)c1ccc(C(=C2C=CC(=[N+](C)C)C=C2)c2ccc(N(C)C)cc2)cc1.[Cl-] [Crystal Violet] + CC(C)C[C@H](NC(=O)[C@H](CCc1ccccc1)NC(=O)CN1CCOCC1)C(=O)N[C@@H](Cc1ccccc1)C(=O)N[C@@H](CC(C)C)C(=O)[C@@]1(C)CO1 and report it.
Result: 32.3

Problem: Find the recorded cell viability of combination belonging to CO[C@@]12[C@H](COC(N)=O)C3=C(C(=O)C(C)=C(N)C3=O)N1C[C@@H]1N[C@@H]12 [Mitomycin C] + CC(C)C[C@H](NC(=O)[C@H](CCc1ccccc1)NC(=O)CN1CCOCC1)C(=O)N[C@@H](Cc1ccccc1)C(=O)N[C@@H](CC(C)C)C(=O)[C@@]1(C)CO1 and report it.
Result: 64

Problem: Find the recorded cell viability of combination belonging to CCC(=C(c1ccccc1)c1ccc(OCCN(C)C)cc1)c1ccccc1.O=C(O)CC(O)(CC(=O)O)C(=O)O [Tamoxifen Citrate] + CC(C)C[C@H](NC(=O)[C@H](CCc1ccccc1)NC(=O)CN1CCOCC1)C(=O)N[C@@H](Cc1ccccc1)C(=O)N[C@@H](CC(C)C)C(=O)[C@@]1(C)CO1 and report it.
Result: 71.2

====

system: HCI01 (cells of a triple-negative basal-like breast cancer xenograft); experiment: cell viability (% of vehicle); higher = less cytotoxic; conditions: 10 µM; 72 h
Counter-ions that a name gives are not always drawn.
observation.type: cell viability
Respond using a number only.

See these solved cases before continuing.
compound	cell viability
C=C1CCC(O)CC1=CC=C1CCCC2(C)C1CCC2C(C)C=CC(C)C(C)C (stereo unspecified) [Vitamin D2 (Ergocalciferol)]	118
COCCCOc1ccnc(C[S+]([O-])c2nc3ccccc3[nH]2)c1C (stereo unspecified) [Rabeprazole sodium]	167
O=C([O-])CC(O)CC(O)C=Cc1c(C2CC2)nc2ccccc2c1-c1ccc(F)cc1.O=C([O-])CC(O)CC(O)C=Cc1c(C2CC2)nc2ccccc2c1-c1ccc(F)cc1.[Ca+2] (stereo unspecified)	83.9
CN1CCN(c2cc3c(cc2F)c(=O)c(C(=O)O)cn3-c2ccc(F)cc2)CC1 [Difloxacin HCl]	60.2
Cl.Nc1ccc(N=Nc2ccccc2)c(N)n1 [Phenazopyridine HCl]	196
O=C1CCc2cc(OCCCCc3nnnn3C3CCCCC3)ccc2N1	133
Cc1cc(NS(=O)(=O)c2ccc(N)cc2)no1	115
NC(CO)(CO)CO.O=C(c1ccccc1)c1ccc2n1CCC2C(=O)O (stereo unspecified) [Ketorolac tromethamine salt]	123

// moving on: another record for cell viability
Problem: Find the recorded cell viability belonging to CC(C)C1CCC(C(=O)NC(Cc2ccccc2)C(=O)O)CC1 (stereo unspecified) [Nateglinide] and report it.
Result: 84.1
